Molecular target: UniProt O14786
Sequence (O14786 22-923): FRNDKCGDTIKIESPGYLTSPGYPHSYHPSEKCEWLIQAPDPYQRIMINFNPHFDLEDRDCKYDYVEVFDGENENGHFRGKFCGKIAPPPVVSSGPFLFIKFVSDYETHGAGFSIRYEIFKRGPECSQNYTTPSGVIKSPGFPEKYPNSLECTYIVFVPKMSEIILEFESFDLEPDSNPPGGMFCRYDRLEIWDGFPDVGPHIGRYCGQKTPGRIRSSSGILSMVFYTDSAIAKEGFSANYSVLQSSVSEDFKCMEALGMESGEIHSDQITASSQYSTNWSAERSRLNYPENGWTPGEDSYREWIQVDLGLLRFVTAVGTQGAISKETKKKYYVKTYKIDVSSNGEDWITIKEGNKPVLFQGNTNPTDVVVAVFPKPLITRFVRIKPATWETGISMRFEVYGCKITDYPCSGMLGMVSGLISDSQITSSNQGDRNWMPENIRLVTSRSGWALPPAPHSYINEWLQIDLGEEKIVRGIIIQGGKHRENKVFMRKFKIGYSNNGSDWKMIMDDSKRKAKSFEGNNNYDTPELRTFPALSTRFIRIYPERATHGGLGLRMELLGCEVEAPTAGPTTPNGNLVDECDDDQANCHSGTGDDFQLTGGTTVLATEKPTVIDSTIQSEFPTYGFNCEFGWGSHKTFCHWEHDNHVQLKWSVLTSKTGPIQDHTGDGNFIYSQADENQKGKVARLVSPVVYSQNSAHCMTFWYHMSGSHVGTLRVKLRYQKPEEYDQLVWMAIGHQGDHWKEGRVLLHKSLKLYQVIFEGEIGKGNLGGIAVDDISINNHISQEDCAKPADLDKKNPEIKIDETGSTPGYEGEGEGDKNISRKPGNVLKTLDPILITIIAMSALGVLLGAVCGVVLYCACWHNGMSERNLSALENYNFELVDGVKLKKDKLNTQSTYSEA
pIC50: −log10 of the molar value.
Assign class by pIC50: not lower than 8 means label 1; lower than 8 means label 0.

Completed entries (count: 2):
Compound	Assay system	Qualitative label
Cc1ncc(CCCN(C)CC(=O)N[C@@H](CCCN=C(N)N)C(=O)O)cc1Nc1ncc2c(n1)-c1ccc(Cl)cc1NC(=S)C2	UniProt O14786	label 1
NC(N)=NCCC[C@H](NC(=O)c1sccc1NS(=O)(=O)c1cccc2nsnc12)C(=O)O [EG00229, reference compound]	UniProt O14786	label 0

Consider the record given below.
Query: In plain terms: is recorded pIC50 at least 8 for NC(N)=NCCC[C@H](NC(=O)CCCCCc1cncc(Nc2ncc3c(n2)-c2ccc(Cl)cc2NC(=O)C3)c1)C(=O)O ?
Response: label 0

====

Assay system UniProt P53350; read-out recorded as IC50.
Sequence (P53350 whole entry): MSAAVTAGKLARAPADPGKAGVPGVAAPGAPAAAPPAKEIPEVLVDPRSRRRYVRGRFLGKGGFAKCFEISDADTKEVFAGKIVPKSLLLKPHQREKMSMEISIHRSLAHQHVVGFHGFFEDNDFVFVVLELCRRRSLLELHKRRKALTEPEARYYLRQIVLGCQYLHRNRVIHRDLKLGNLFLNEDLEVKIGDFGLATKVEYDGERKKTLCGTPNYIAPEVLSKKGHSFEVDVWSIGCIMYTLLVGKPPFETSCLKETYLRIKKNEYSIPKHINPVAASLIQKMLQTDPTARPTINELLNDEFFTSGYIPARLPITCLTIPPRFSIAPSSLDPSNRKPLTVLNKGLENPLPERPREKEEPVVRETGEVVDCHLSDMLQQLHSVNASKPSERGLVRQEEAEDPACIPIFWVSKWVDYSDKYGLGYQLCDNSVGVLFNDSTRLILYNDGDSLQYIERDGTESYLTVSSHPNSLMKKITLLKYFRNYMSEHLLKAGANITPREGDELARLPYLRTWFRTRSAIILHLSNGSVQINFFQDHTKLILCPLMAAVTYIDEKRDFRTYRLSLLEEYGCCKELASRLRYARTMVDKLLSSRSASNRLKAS
A number alone suffices; assume nM.

Example cases with answers are listed next.
Sample smiles	Value
Cc1ncc(CCCN(C)CC(=O)N[C@@H](CCCN=C(N)N)C(=O)O)cc1Nc1ncc2c(n1)-c1ccc(C#N)cc1NC(=O)C2	8.12
COc1ncc(Nc2ncc3c(n2)-c2ccc(Cl)cc2NC(=O)C3)cc1CCCCCC(=O)N[C@@H](CCCN=C(N)N)C(=O)O	11.4

Query compound follows.
Query: Report value only: IC50, UniProt P53350, NC(N)=NCCC[C@H](NC(=O)CCCCCc1cncc(Nc2ncc3c(n2)-c2ccc(Cl)cc2NC(=O)C3)c1)C(=O)O
Response: 16.5

====

Target: NRP2 (Homo sapiens)
Construct: ICE Bioscience Inc (Beijing, China) (performed the assay)
Sequence (O60462 21-931): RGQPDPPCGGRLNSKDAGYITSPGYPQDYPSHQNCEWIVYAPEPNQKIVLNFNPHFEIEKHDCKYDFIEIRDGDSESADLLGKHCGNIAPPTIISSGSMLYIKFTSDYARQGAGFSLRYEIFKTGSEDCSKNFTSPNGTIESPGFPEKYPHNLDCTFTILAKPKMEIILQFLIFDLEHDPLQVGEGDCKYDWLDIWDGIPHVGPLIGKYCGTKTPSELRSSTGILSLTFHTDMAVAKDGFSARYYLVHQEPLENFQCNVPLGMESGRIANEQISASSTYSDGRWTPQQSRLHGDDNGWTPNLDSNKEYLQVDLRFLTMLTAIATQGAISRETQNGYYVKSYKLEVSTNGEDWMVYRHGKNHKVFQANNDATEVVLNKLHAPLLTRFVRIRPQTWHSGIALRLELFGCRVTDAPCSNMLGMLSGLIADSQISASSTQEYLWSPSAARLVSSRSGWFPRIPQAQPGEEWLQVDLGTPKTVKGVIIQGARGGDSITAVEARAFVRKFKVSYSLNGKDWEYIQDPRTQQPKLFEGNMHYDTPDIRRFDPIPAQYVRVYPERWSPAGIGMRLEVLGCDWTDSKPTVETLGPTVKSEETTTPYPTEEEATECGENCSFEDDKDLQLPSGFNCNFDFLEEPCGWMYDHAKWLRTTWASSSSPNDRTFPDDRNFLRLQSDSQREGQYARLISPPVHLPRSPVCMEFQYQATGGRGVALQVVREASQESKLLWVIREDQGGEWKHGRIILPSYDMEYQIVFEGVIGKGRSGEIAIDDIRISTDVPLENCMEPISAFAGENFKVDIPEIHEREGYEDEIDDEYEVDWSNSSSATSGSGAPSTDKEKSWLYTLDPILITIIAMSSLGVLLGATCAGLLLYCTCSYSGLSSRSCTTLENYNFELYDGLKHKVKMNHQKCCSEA
Assay: In vitro selectivity assay NRP2
Format: biochemical
Conditions: n = 3
Readout type: IC50

Query: Given Cc1ncc(CCCN(C)CC(=O)N[C@@H](CCCN=C(N)N)C(=O)O)cc1Nc1ncc2c(n1)-c1ccc(Cl)cc1NC(=S)C2 , respond with its IC50.
Response: > 10 µM

====

Target: PLK2 (Homo sapiens)
Sequence (Q9NYY3 whole entry, species assumed): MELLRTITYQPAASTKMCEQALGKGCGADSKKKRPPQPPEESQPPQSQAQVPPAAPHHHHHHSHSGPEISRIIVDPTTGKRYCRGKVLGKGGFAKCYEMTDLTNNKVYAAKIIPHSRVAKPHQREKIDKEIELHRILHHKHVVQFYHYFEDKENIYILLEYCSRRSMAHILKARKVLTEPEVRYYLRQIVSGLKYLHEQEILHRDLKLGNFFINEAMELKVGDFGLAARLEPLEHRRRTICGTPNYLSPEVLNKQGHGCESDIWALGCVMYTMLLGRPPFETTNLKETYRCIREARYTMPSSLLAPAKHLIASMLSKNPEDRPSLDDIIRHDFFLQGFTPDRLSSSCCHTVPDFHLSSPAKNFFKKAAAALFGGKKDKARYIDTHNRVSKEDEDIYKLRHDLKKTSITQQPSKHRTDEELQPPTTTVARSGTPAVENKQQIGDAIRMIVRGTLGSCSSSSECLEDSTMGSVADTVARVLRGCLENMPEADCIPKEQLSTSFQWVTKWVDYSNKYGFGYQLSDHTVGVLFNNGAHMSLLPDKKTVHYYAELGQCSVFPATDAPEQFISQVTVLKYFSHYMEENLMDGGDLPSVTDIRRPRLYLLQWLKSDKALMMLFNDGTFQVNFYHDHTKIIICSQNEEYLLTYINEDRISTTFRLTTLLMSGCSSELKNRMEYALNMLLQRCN
pIC50: −log10 of the molar value.
Readout type: pIC50

Query: Please indicate pIC50 recorded for Cc1ncc(CCCN(C)CC(=O)N[C@@H](CCCN=C(N)N)C(=O)O)cc1Nc1ncc2c(n1)-c1ccc(Cl)cc1NC(=S)C2
Response: < 5.00
